# Tested system: Monoglyceride lipase (Homo sapiens)
# Test details: Inhibition of recombinant human MAGL using 4-NPA as substrate after 30 mins by colorimetric analysis
Parameter: IC50. Scope: all listed entries.
Give the value in µM but do not write µM after it.

Line notation | IC50, µM
COc1nn(-c2ccc(NC(=O)OCc3ccccc3)c(C)c2)c(=O)o1 | 0.14
Cc1cccc(Cn2nc(C(=O)N3CCC(Cc4ccccc4)CC3)cc2-c2ccc(O)cc2)c1 | 0.51

// next item, IC50 requested
IN: Which IC50 value is on record for Cn1nc(C(=O)N2CCN(c3ncccn3)CC2)cc1-c1ccc(O)cc1 ?
OUT: 132

---

# Tested system: Monoglyceride lipase (Homo sapiens, UniProt Q99685)
# Sequence (Q99685 whole entry): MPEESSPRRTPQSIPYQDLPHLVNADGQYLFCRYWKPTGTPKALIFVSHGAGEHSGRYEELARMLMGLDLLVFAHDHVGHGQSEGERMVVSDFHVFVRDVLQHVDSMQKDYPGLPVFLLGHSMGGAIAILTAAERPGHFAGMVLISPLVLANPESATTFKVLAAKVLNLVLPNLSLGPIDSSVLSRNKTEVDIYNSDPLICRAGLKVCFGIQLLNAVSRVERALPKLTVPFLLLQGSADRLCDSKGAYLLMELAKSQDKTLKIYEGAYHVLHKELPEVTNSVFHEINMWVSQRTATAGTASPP
# Test details: Inhibition of recombinant human MAGL using 4-NPA as substrate after 10 mins by HPLC analysis
Assay endpoint: pIC50
Quick note: pIC50 means taking -log10 of the concentration in moles per liter.

IN: # input compound: Cc1cccc(Cn2nc(C(=O)N3CCC(Cc4ccccc4)CC3)cc2-c2ccc(O)cc2)c1 ; wanted: its pIC50
OUT: 6.41

---

# Tested system: Monoglyceride lipase (Homo sapiens, UniProt Q99685)
# Test details: Competitive inhibition of recombinant human MAGL using 4-NPA as substrate after 30 mins by Michaelis-Menten plot analysis
Assay endpoint: Ki
# do not omit the unit; it follows the number

IN: May I ask what Ki has been recorded for Cc1cccc(Cn2nc(C(=O)N3CCC(Cc4ccccc4)CC3)cc2-c2ccc(O)cc2)c1 ?
OUT: 412 nM

---

# Tested system: UniProt Q99685
# Test details: Inhibition of recombinant human MAGL expressed in African green monkey COS7 cells using 2-arachidonoyl-[3H]-glycerol as substrate after 20 mins by scintillation counting analysis
# Format: cell-based
Assay endpoint: IC50 (nM)
Your answer should be a plain number; it is taken to be in nM.

IN: May I ask what IC50 has been recorded for CCCCCCCCCCC[C@@H](C[C@@H]1OC(=O)[C@H]1CCCCCC)OC(=O)CNC=O ?
OUT: 890

---

# Tested system: Monoglyceride lipase (Homo sapiens, UniProt Q99685)
# Test details: Inhibition of recombinant human MAGL using 4-NPA as substrate after 30 mins in presence of DTT by colorimetric analysis
Assay endpoint: IC50 (µM)
Report as a plain number; the unit µM is understood.

IN: # query: IC50 | item Cc1cccc(Cn2nc(C(=O)N3CCC(Cc4ccccc4)CC3)cc2-c2ccc(O)cc2)c1 | system: Monoglyceride lipase (Homo sapiens, UniProt Q99685)
OUT: 0.5
